Source: patent US4464385A

# Tested on: cataracts in rats
# procedureDetails: Prevention or retardation of cataracts in galactose-fed rats
# Type: in vivo, rat
# conditionNotes: Study Day 14; 30% galactose diet; A,C,E 0.0025%, B,D 0.01%
readout: Number of Eyes Observed, + (vacuole) (eyes)
Just the number in eyes, nothing appended.

See these solved cases before continuing.
C[S+]([O-])c1ccc2c(c1)C1(CCO2)NC(=O)NC1=O (stereo not shown)	15
CSc1ccc2c(c1)C1(CCO2)NC(=O)NC1=O (stereo not shown) [B]	18
O=C1NC(=O)C2(CCOc3ccc(F)cc32)N1 (stereo not shown)	0

As a next step, examine the compound that follows.
Query: Give recorded Number of Eyes Observed, + (vacuole). CSc1ccc2c(c1)C1(CCO2)NC(=O)NC1=O (stereo not shown) [A]
Response: 16
